In this section, each of the compounds is paired with its reported Stability Ratio between T1/2 in the absence and presence of PSA.
# target entity: PSA (Homo sapiens, UniProt P07288)
# Sequence (P07288 25-261): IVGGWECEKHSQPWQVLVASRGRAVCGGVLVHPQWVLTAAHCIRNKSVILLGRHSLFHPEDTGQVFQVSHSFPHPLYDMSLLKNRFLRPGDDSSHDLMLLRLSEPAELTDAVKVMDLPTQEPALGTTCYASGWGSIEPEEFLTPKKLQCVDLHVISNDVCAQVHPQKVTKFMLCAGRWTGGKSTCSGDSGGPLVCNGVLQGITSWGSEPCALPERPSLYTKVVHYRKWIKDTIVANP
# test method notes: PSA cleavage of peptide-linker-drug conjugates, disappearance monitored by HPLC
# Assay type: biochemical
# measurement context: T1/2 (-PSA) / T1/2 (+PSA)
Numbered stars: 1 amine (or outer) side, 2 acyl side, 3 side chain; on linkers, the order of the positions; unused ones are H or OH. Square brackets hold non-standard residues; d marks the D form. Peptide text beside a SMILES is read from it. * marks the point of attachment. X2 = NP(=O)(OCc1ccc(N*)c(F)c1)N(CCCl)CCCl; X1 = NP(=O)(OCc1ccc(N*)cc1F)N(CCCl)CCCl; X3 = NP(=O)(OCc1ccc(N*)cc1)N(CCCl)CCCl; Glutaryl = O=C(CCCC(=O)[*:2])[*:1]; Hyp = O=C(O)[C@@H]1C[C@@H](O)CN1; Chg = N[C@H](C(=O)O)C1CCCCC1
measured metric: Stability Ratio between T1/2 in the absence and presence of PSA

{"columns": ["compound", "test value"],
 "data": [
  ["C[C@H](NC(=O)[C@@H]1C[C@@H](O)CN1C(=O)CCCC(=O)O)C(=O)N[C@@H](CO)C(=O)N[C@H](C(=O)N[C@@H](CCC(N)=O)C(=O)Nc1ccc(COP(N)(=O)N(CCCl)CCCl)c(F)c1)C1CCCCC1 (stereo partly drawn) [5b] (Glutaryl-[Hyp]AS[Chg]Q-X1)", 113],
  ["C[C@H](NC(=O)[C@@H]1C[C@@H](O)CN1C(=O)CCCC(=O)O)C(=O)N[C@@H](CO)C(=O)N[C@H](C(=O)N[C@@H](CCC(N)=O)C(=O)Nc1ccc(COP(N)(=O)N(CCCl)CCCl)cc1)C1CCCCC1 (stereo partly drawn) [5a] (Glutaryl-[Hyp]AS[Chg]Q-X3)", 40],
  ["C[C@H](NC(=O)[C@@H]1C[C@@H](O)CN1C(=O)CCCC(=O)O)C(=O)N[C@@H](CO)C(=O)N[C@H](C(=O)N[C@@H](CCC(N)=O)C(=O)Nc1ccc(COP(N)(=O)N(CCCl)CCCl)cc1F)C1CCCCC1 (stereo partly drawn) [5c] (Glutaryl-[Hyp]AS[Chg]Q-X2)", 711]
]}
